Target: T1, biotinylated human IL-33 (human) (UniProt O95760)
T1 sequence (biotin-labeled with EZ-LINK NHS-PEG4-Biotin, looked up): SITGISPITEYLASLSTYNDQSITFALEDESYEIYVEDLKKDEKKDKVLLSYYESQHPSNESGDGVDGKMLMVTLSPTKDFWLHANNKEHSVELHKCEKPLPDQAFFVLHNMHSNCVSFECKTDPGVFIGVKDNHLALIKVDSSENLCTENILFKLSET
Assay: competitive ELISA, biotin-huIL-33 to coated hST2-Fc
Kindly apply the following: YES if Maximum Blocking is less than 80%, NO in every other case.

*Q* Quick check: Maximum Blocking of H4H9672P (antibody, from another filing, IgG4, V domains shown) VH: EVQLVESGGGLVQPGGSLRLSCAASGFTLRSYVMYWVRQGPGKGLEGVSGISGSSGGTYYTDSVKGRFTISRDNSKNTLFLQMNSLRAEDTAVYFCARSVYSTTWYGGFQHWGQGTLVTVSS VL: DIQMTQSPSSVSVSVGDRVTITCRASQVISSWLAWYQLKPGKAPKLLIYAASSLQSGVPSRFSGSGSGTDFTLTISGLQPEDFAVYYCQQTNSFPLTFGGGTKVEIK under 80%?
*A* YES

*Q* Thanks! And H4H9671P (antibody, from another filing, IgG4, V domains shown) VH: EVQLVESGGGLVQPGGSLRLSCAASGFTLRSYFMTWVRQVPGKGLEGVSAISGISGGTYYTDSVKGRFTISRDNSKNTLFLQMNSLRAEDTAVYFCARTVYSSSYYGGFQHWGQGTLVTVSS VL: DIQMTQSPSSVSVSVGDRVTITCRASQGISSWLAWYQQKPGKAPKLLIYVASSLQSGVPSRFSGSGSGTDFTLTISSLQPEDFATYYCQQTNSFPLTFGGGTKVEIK ?
*A* YES

*Q* Field entry: H4H9667P (antibody, from another filing, IgG4, V domains shown) VH: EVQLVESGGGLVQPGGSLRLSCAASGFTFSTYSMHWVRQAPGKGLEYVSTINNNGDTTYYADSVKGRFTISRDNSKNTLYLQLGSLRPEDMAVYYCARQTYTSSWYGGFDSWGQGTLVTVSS VL: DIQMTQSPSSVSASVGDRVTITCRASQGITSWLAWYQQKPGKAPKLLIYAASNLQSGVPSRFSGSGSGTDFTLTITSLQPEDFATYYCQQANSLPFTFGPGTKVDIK
*A* YES

*Q* Follow-up item: H4H9664P (antibody, from another filing, IgG4, V domains shown) VH: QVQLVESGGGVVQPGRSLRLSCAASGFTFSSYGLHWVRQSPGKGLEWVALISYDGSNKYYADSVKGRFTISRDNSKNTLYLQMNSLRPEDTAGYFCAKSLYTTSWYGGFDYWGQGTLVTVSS VL: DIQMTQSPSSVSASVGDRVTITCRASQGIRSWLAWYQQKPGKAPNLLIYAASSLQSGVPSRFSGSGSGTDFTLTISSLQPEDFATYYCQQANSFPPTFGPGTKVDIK
*A* NO
